Data provenance: patent EP4810040A2

target: APOL1 G1 (Homo sapiens, UniProt O14791, I384M/S342G); assay: MultiTox-Fluor Multiplex Cytotoxicity Assay, tet-inducible APOL1 G1 T-REx-HEK293 cells; assay type: cell-based; parameters: expressed in transfected cells; host or cells: T-REx HEK293, clone G1 DC3.25 (pAAVS1-Puro-APOL1 G1); details: Multi-Tox Assay; APOL1 variant not given
recordedMetric: Multi-Tox Assay Max Activity (%)
Report the figure in % without appending any unit label.

molecule="COC(=O)Cn1cc([C@@H]2C[C@]3(C[C@H](C)N2)OC[C@@H](O)c2cc(Cl)sc23)nn1 [Compound 263]" measurementtarget="APOL1 G1 (Homo sapiens, UniProt O14791, I384M/S342G)" outputunit=% number=86.0
molecule="CC(CO)Cn1cc([C@@H]2C[C@]3(C[C@H](C)N2)OC[C@@H](O)c2cc(Cl)sc23)nn1 (stereo partly drawn) [Compound 256]" measurementtarget="APOL1 G1 (Homo sapiens, UniProt O14791, I384M/S342G)" outputunit=% number=96.0
molecule="CCOc1cc([C@@H]2C[C@]3(C[C@H](C)N2)OCCc2cc(Cl)sc23)ccc1O (racemic) [Compound 102]" measurementtarget="APOL1 G1 (Homo sapiens, UniProt O14791, I384M/S342G)" outputunit=% number=99.8

Query: # input molecule: CCC(O)Cn1cc([C@@H]2C[C@]3(C[C@H](C)N2)OCCc2cc(Cl)sc23)nn1 (mixture of isomers) [Compound 111] ; wanted: its Multi-Tox Assay Max Activity (%)
Response: 99.3

Query: Moving on to C[C@H]1C[C@@]2(C[C@@H](c3cccc4cn[nH]c34)N1)OCCc1cc(Cl)sc12 (racemic) [Compound 168]
Response: 89.0

Query: Moving on to Cc1nocc1[C@@H]1C[C@]2(C[C@H](C)N1)OCCc1cc(Cl)sc12 (racemic) [Compound 132]
Response: 99.3

###

Target: APOL1 G1 (Homo sapiens, UniProt O14791, I384M/S342G)
Sequence (O14791 28-398 S342G/I384M): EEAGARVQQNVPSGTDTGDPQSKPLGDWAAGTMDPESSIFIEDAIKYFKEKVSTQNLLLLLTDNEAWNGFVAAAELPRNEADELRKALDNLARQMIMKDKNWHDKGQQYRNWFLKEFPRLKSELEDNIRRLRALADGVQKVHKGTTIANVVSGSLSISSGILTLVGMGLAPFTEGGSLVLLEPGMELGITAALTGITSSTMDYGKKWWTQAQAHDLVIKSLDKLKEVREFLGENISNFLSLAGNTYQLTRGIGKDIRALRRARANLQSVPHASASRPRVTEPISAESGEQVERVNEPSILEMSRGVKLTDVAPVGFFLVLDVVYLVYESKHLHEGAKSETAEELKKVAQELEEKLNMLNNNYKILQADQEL
Assay: MultiTox-Fluor Multiplex Cytotoxicity Assay, tet-inducible APOL1 G1 T-REx-HEK293 cells
Type: cell-based
Set-up: expressed in transfected cells; host or cells: T-REx HEK293, clone G1 DC3.25 (pAAVS1-Puro-APOL1 G1)
Conditions: HEK293, Multi-Tox Assay; APOL1 variant (G0/G1/G2) of the HEK293 cells not given; read-out: Multi-Tox Assay IC90
recordedMetric: IC90

molecule=C[C@H]1C[C@@]2(C[C@@H](c3cn(Cc4cccc(O)c4)nn3)N1)OC[C@@H](O)c1cc(Cl)sc12 result="50 to 500 nM"
molecule="CC1CC2(CC(c3ccc4[nH]ncc4c3)N1)OCCc1cc(Cl)sc12 (centres unmarked)" result="< 50 nM"

Query: # input molecule: CCn1cc(Cn2cc([C@@H]3C[C@]4(C[C@H](C)N3)OCC(F)(F)c3cc(Cl)sc34)nn2)cn1 ; wanted: its IC90
Response: 50 to 500 nM

Query: Moving on to COc1ccc(C2CC3(CC(C)N2)OCCc2cc(Cl)sc23)nc1 (centres unmarked)
Response: < 50 nM

Query: Moving on to CC1CC2(CC(C3CCOCC3)N1)OCCc1cc(Cl)sc12 (mixture of isomers)
Response: > 500 nM

Query: Moving on to CC1CC2(CC(C3CC3)N1)OCCc1cc(Cl)sc12 (mixture of isomers)
Response: < 50 nM

Query: Moving on to C[C@H]1C[C@@]2(C[C@@H](c3cn(CCc4ccncn4)nn3)N1)OCC(F)(F)c1cc(Cl)sc12
Response: 50 to 500 nM

Query: Moving on to C[C@H]1C[C@@]2(C[C@@H](c3cn(Cc4ccc(OC5CCOCC5)cc4)nn3)N1)OC[C@@H](O)c1cc(Cl)sc12
Response: 50 to 500 nM

Query: Moving on to C[C@H]1C[C@@]2(C[C@@H](c3cnn(C4CCOCC4)c3)N1)OCCc1cc(Cl)sc12 (racemic)
Response: < 50 nM

###

biological target: APOL1 G1 (Homo sapiens, UniProt O14791, I384M/S342G); assay: MultiTox-Fluor Multiplex Cytotoxicity Assay, tet-inducible APOL1 G1 T-REx-HEK293 cells; type: cell-based; parameters: expressed in transfected cells; host or cells: T-REx HEK293, clone G1 DC3.25 (pAAVS1-Puro-APOL1 G1); conditions: Multi-Tox Assay; APOL1 variant not given; read-out: Multi-Tox Assay Max Activity (%)
recordedMetric: Emax

Below, 2 compounds whose answers are already recorded.
compound="C[C@H]1C[C@@]2(C[C@@H](c3cn(C)nn3)N1)OCC(O)(C(F)F)c1cc(Cl)sc12 (single isomer, unassigned) [Compound 184]" result=99.3%
compound="C[C@H]1C[C@@]2(C[C@@H](c3ccon3)N1)OCCc1cc(Cl)sc12 (racemic) [Compound 96]" result=99.8%

Query: Give APOL1 G1 (Homo sapiens, UniProt O14791, I384M/S342G) Emax for C[C@H]1C[C@@]2(C[C@@H](c3cn(C)nn3)N1)OCCc1cc(C(F)(F)F)sc12 [Compound 2]
Response: 100%

Query: Moving on to C[C@H]1C[C@@]2(C[C@@H](C3CC3)N1)OCC(O)c1cc(Cl)sc12 (stereo partly shown) [Compound 220]
Response: 99.3%

###

molecular target: APOL1 G1 (Homo sapiens, UniProt O14791, I384M/S342G); test: MultiTox-Fluor Multiplex Cytotoxicity Assay, tet-inducible APOL1 G1 T-REx-HEK293 cells; type: cell-based; set-up: expressed in transfected cells; host or cells: T-REx HEK293, clone G1 DC3.25 (pAAVS1-Puro-APOL1 G1); conditions: HEK293, Multi-Tox Assay; APOL1 variant (G0/G1/G2) of the HEK293 cells not given; read-out: Multi-Tox Assay IC90
recordedMetric: IC90

Below, 6 compounds whose answers are already recorded.
compound="C[C@H]1C[C@@]2(C[C@@H](c3cnn(C4CCS(=O)(=O)C4)c3)N1)OCCc1cc(Cl)sc12 (stereo partly shown)" result="< 0.05 µM"
compound=C[C@H]1C[C@@]2(C[C@@H](c3cn(CCC(N)=O)nn3)N1)OC[C@@H](O)c1cc(Cl)sc12 result="0.05 to 0.5 µM"
compound="Cc1nc([C@@H]2C[C@]3(C[C@H](C)N2)OCCc2cc(Cl)sc23)[nH]c1C (racemic)" result="> 0.5 µM"
compound=C[C@H]1C[C@@]2(C[C@@H](c3cnn(CC(=O)N(C)C)c3)N1)OCCc1cc(Cl)sc12 result="< 0.05 µM"
compound=COc1ccc(Cn2cc([C@@H]3C[C@]4(C[C@H](C)N3)OCC(F)(F)c3cc(Cl)sc34)nn2)cc1 result="> 0.5 µM"
compound="C[C@H]1C[C@@]2(C[C@@H](c3cnc(N)nc3)N1)OCCc1cc(Cl)sc12 (racemic)" result="< 0.05 µM"

Query: # input compound: COc1ccc([C@@H]2C[C@]3(C[C@H](C)N2)OCCc2cc(Cl)sc23)cc1C#N (racemic) ; wanted: its IC90
Response: < 0.05 µM

###

Some compounds, each annotated with its measured Multi-Tox Assay Max Activity (%).
target: APOL1 G1 (Homo sapiens, UniProt O14791, I384M/S342G); test: MultiTox-Fluor Multiplex Cytotoxicity Assay, tet-inducible APOL1 G1 T-REx-HEK293 cells; type: cell-based; parameters: expressed in transfected cells; host or cells: T-REx HEK293, clone G1 DC3.25 (pAAVS1-Puro-APOL1 G1); details: Multi-Tox Assay; APOL1 variant not given
Report the figure in % without appending any unit label.

Below, 6 compounds whose answers are already recorded.
compound=C[C@H]1C[C@@]2(C[C@@H](c3cn(Cc4cnc5cnccn45)nn3)N1)OC[C@@H](O)c1cc(Cl)sc12 recordedmetric="Multi-Tox Assay Max Activity (%)" number=98.0
compound=C[C@H]1C[C@@]2(C[C@@H](c3cn(CC4(O)CC4)nn3)N1)OC[C@@H](O)c1cc(Cl)sc12 recordedmetric="Multi-Tox Assay Max Activity (%)" number=100.0
compound="COc1cccc([C@@H]2C[C@]3(C[C@H](C)N2)OCCc2cc(Cl)sc23)c1O (racemic)" recordedmetric="Multi-Tox Assay Max Activity (%)" number=96.7
compound="C[C@H]1C[C@@]2(C[C@@H](c3cccc(S(N)(=O)=O)c3)N1)OCCc1cc(Cl)sc12 (racemic)" recordedmetric="Multi-Tox Assay Max Activity (%)" number=92.3
compound="C[C@H]1C[C@@]2(C[C@@H](c3ccnc(O)c3)N1)OCCc1cc(Cl)sc12 (racemic)" recordedmetric="Multi-Tox Assay Max Activity (%)" number=100.0
compound="C[C@H]1C[C@@]2(C[C@@H](c3cn(CC4CCCCO4)nn3)N1)OC[C@@H](O)c1cc(Cl)sc12 (stereo partly shown)" recordedmetric="Multi-Tox Assay Max Activity (%)" number=100.0

Query: # input compound: C[C@H]1C[C@@]2(C[C@@H](c3cn(Cc4ccc5nc(O)[nH]c5c4)nn3)N1)OC[C@@H](O)c1cc(Cl)sc12 ; wanted: its Multi-Tox Assay Max Activity (%)
Response: 92.0

Query: Moving on to COc1cccc(Cn2cc([C@@H]3C[C@]4(C[C@H](C)N3)OCC(F)(F)c3cc(Cl)sc34)nn2)c1
Response: 95.0

Query: Moving on to CC1CC2(CC(c3cnn(-c4cccnc4)c3)N1)OCCc1cc(Cl)sc12 (stereo not shown)
Response: 100.0

Query: Moving on to C[C@H]1C[C@@]2(C[C@@H](c3cn(Cc4cncs4)nn3)N1)OC[C@@H](O)c1cc(Cl)sc12
Response: 101.0

Query: Moving on to C[C@H]1C[C@@]2(C[C@@H](c3cn(Cc4ccc(OC5CCOCC5)cc4)nn3)N1)OCC(F)(F)c1cc(Cl)sc12
Response: 95.0
